Recorded values, source patent US20240067748A1.

test_system: T1, human Trop2 on cells (human, UniProt P09758 27-323)
T1 construct: whole, on cells; also called hTrop2; 293T-human Trop2 cells
T1 sequence (looked up): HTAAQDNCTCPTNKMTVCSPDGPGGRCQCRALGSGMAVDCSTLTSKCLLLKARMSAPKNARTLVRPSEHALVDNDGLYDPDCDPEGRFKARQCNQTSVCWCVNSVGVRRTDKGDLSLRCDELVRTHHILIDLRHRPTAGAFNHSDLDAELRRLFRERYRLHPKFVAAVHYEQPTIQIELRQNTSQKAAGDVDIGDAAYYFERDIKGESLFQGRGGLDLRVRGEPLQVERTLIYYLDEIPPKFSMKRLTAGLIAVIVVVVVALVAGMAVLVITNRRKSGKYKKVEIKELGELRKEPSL
measurement_protocol: flow cytometry on 293T-human Trop2 cells
Entries whose Maximum (MFI) is below 7000 MFI take True; entries at or above 7000 MFI take False.

1. PR001154 (antibody, human IgG1, kappa, V domains shown, fully human IgG1/kappa; also called antibody No. (17)) VH: QVQLVESGGGVVQPGRSLRLSCEASGFTFSHYGMHWVRQAPGKGLEWVAVIWYDGIKKYYIESVKGRFIISRDNSKNTLYLQMNRLRAEDTAVYYCARDGGFGELNYYGLDVWGQGTTVTVSS VL: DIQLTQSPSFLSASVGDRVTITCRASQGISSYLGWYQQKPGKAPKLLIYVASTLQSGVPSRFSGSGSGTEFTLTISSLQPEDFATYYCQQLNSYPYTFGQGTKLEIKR ... False
2. comparative example 2 antibody Tab (hRS7) (antibody, human IgG1, kappa, V domains shown, prepared on the basis of sacituzumab govitecan (ChemPartner, #T07-001); naked antibody) VH: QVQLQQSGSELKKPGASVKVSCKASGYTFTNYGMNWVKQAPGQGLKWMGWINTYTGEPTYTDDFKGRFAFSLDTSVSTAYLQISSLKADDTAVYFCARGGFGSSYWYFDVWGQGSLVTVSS VL: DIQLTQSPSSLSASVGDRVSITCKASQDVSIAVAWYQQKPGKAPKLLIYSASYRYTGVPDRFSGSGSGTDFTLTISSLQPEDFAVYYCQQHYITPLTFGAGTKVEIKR ... True
3. PR001160 (antibody, human IgG1, kappa, V domains shown, fully human IgG1/kappa; also called antibody No. (22)) VH: QVQLVESGGGVVQPGRSLRLSCEASGFTFSHYGMHWVRQAPGKGLEWVAVIWYDGIMKNYIESVKGRFTISRDNSKNTLYLQMNRLRAEDTAVYYCARDGGFGELNYYGLDVWGQGTTVTVSS VL: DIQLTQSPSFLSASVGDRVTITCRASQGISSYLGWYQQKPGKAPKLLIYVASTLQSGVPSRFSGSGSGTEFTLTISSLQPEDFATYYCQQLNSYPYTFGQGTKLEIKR ... True
4. PR001155 (antibody, human IgG1, kappa, V domains shown, fully human IgG1/kappa; also called antibody No. (18)) VH: QVQLVQSGGGVVQPGRSLRLSCAASGFTFSHYGMHWVRQAPGKGLEWVAVIWYDGIKKYYVESVKGRFTISRDNSKNTLYLQMNRLRAEDTAVYYCARDGGFGELNYYGLDVWGQGTTVTVSS VL: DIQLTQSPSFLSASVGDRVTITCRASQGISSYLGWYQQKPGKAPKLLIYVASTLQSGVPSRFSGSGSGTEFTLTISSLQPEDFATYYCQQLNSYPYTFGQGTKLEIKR ... False
5. PR001142 (antibody, human IgG1, kappa, V domains shown, fully human IgG1/kappa; also called antibody No. (9)) VH: QVQLQESGPGLVKPSGTLSLTCAVSGDSISSNNWWSWVRQPPGKGLEWIGEIYPGGNPNYNPSLKSRVTISVDKSKNQFSLKLNSVTAADTAVYYCARGSGVISYFDYWGQGTLVTVSS VL: DIQMTQSPSTLSASVGDRVTITCRASQSIGHWLAWYQQKPGKAPKLLIYKASSLESGVPSRFRGSGSGTEFTLTISSLQPDDFATYYCQQYSSYSPITFGQGSRLEIKR ... True
